assay_system: human GcgR (Homo sapiens, UniProt P47871)
Sequence (P47871 26-477): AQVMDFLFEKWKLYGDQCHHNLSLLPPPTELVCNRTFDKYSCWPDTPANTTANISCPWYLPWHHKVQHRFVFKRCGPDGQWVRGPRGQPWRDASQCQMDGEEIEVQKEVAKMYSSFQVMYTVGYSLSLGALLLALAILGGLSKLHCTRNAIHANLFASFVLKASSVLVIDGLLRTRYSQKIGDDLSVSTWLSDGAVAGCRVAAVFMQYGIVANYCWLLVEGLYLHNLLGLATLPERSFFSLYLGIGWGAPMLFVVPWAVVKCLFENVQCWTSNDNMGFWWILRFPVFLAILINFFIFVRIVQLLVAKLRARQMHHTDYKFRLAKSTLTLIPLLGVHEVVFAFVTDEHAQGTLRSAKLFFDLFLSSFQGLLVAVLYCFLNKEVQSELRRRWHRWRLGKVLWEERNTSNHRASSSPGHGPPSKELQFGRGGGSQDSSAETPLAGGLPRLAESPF
experiment_summary: Functional cAMP activity in the presence of 1% HSA
Assay type: cell-based
condition_details: read-out: cAMP Rel EC50, hGcgR
Starred links: 1 amine or outer side, 2 acyl side, 3 side chain; linkers in the order of their positions; H or OH if unused. Non-standard residues stand in square brackets, D forms with d. Groups on a side chain read outwards from the residue. *: point of attachment. C20 diacid = O=C(O)CCCCCCCCCCCCCCCCCCC(=O)*; C18 diacid = O=C(O)CCCCCCCCCCCCCCCCC(=O)*; αMePhe(2-F) = C[C@](N)(Cc1ccccc1F)C(=O)O; γGlu = O=C(O)[C@H](CCC(=O)[*:2])N[*:1]; αMe4Pal = C[C@](N)(Cc1ccncc1)C(=O)O; αMeY = C[C@](N)(Cc1ccc(O)cc1)C(=O)O; 4Pal = N[C@@H](Cc1ccncc1)C(=O)O; αMeL = CC(C)C[C@](C)(N)C(=O)O; αMeS = C[C@](N)(CO)C(=O)O; Orn = NCCC[C@H](N)C(=O)O; AEEA = NCCOCCOCC(=O)O; Aib = CC(C)(N)C(=O)O
EC50 strictly less than 600 nM = y. Otherwise n.

EC50 strictly < 600 nM for this substance? H-Y[Aib]QGTFTSDFS[Orn][αMeL]LDKK([AEEA-γGlu-C20 diacid])AQ[Aib]AFIEYLLAGGPSSGAPPPSEG-NH2 [Example 60]
n

EC50 strictly < 600 nM for this substance? H-Y[Aib]QGT[αMePhe(2-F)]TSD[4Pal]SI[αMeL]LD[Orn]K([AEEA-γGlu-C18 diacid])AQ[αMe4Pal][Orn]FI[dE][αMeY]LIEGGPSSGEPPPEGE-NH2 [Example 675]
y

EC50 strictly < 600 nM for this substance? H-Y[Aib]QGTFTSD[4Pal]SQ[αMeL]LD[Orn]K([γGlu-γGlu-C18 diacid])AQ[αMe4Pal]AFIEYLIE[dA]GPSSGEPPPSGS-NH2 [Example 1019]
y

EC50 strictly < 600 nM for this substance? H-Y[Aib]QGT[αMePhe(2-F)]TSD[4Pal][αMeS]I[αMeL]LD[Orn]K([AEEA-AEEA-γGlu-C18 diacid])AQ[Aib][Orn]FI[dE][αMeY]LIEGGPSSGEPPPSEG-NH2 [Example 490]
y

EC50 strictly < 600 nM for this substance? H-Y[Aib]QGTFTSD[4Pal]S[Orn][αMeL]LD[Orn]K([γGlu-γGlu-C18 diacid])AQ[αMe4Pal]AFIEYLLAGGPSSGAPPPSGSEE-NH2 [Example 1068]
y

EC50 strictly < 600 nM for this substance? H-Y[Aib]QGTFTSD[4Pal]S[Orn][αMeL]LDKK([AEEA-γGlu-C18 diacid])AQ[αMe4Pal]AFIE[αMe4Pal]LIEGGPSSGAPPPSGS-NH2 [Example 949]
y

EC50 strictly < 600 nM for this substance? H-Y[Aib]QGTFTSD[4Pal]SQ[αMeL]LD[Orn]K([dE-γGlu-C18 diacid])AQ[αMe4Pal]QFIQ[αMeY]LIE[Aib]GPSSGEPPPSGGGE-NH2 [Example 1129]
n

EC50 strictly < 600 nM for this substance? H-Y[Aib]QGT[αMePhe(2-F)]TSDYSILLDKQAQK([AEEA-AEEA-γGlu-C20 diacid])AFIEYLLEGGPSSGEPPPSEG-NH2 [Example 345]
n

EC50 strictly < 600 nM for this substance? H-Y[Aib]QGT[αMePhe(2-F)]TSD[4Pal]SILLDKK([γGlu-γGlu-C18 diacid])AQ[Aib]AFIE[αMeY]LEEGGPSSGAPPPSGEGE-NH2 [Example 667]
y

EC50 strictly < 600 nM for this substance? H-Y[Aib]QGTFTSD[4Pal]SQ[αMeL]LDKK([γGlu-γGlu-C18 diacid])AQ[αMe4Pal]QFIE[αMeY]LIEGGPSSGAPPPSGS-NH2 [Example 934]
n

EC50 strictly < 600 nM for this substance? H-Y[Aib]QGTFTSDFS[Orn][αMeL]LDKK([AEEA-γGlu-C18 diacid])AQ[αMe4Pal]DFIEYLIE[Aib]GPSSGAPPPSGS-NH2 [Example 880]
y
